Target: human IL-6 (human, UniProt P05231 30-212)
Sequence (P05231 30-212 limits assumed): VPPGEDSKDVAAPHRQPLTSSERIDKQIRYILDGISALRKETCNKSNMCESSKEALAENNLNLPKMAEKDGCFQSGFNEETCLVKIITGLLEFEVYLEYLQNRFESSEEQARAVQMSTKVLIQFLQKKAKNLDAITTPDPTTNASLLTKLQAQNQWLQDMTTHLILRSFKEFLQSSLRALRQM
Experiment: SPR (Biacore), supernatant antibody on Protein A chip, IL-6 flowed, 37 C
Experimental: Antibodies were captured on a Protein A chip (GE) by injecting 1:20 cell supernatant dilutions at 10 μL/min for 60 seconds. […] The sensor chip was regenerated by a 60 seconds injection of 10 mM Glycine pH 1.7 at the flow rate of 50 μL/min. […] For this setup, 1 μg/mL of purified antibody was injected over a Protein A chip at 10 μL/min for 25 seconds. […] The sensor chip was regenerated by a 60 seconds injection of 10 mM Glycine pH 1.7 at flow rate of 50 μL/min. […]
Parameter threshold = 800000 M⁻¹ s⁻¹. Response is satisfied when kon meets or exceeds it, else not satisfied.

Worked examples, 3 binders total:
[[record]]
binder = "anti-IL-6 antibody, heavy chain T63R, G66D / light chain M32L, M50D, N52S, M88Q (antibody, human IgG1, V domains shown, Human IgG1) VH: EVQLVESGGGLVQPGGSLRLSCAASGFTFSPFAMSWVRQAPGKGLEWVAKISPGGSWTYYSDRVTDRFTFSLDTSKSTAYLQMNSLRAEDTAVYYCARQLWGYYALDIWGQGTLVTVSS VL: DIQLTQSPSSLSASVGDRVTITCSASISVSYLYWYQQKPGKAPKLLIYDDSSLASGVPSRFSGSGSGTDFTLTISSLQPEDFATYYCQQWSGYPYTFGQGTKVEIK"
label_class = "satisfied"

[[record]]
binder = "anti-IL-6 antibody, heavy chain T65R, G66D / light chain M32L, M50D, N52S, M88Q (antibody, human IgG1, V domains shown, Human IgG1) VH: EVQLVESGGGLVQPGGSLRLSCAASGFTFSPFAMSWVRQAPGKGLEWVAKISPGGSWTYYSDTVRDRFTFSLDTSKSTAYLQMNSLRAEDTAVYYCARQLWGYYALDIWGQGTLVTVSS VL: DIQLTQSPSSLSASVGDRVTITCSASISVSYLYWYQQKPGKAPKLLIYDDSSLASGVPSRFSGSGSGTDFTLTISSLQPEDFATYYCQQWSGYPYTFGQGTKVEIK"
label_class = "satisfied"

[[record]]
binder = "anti-IL-6 antibody, heavy chain S35E, G66D / light chain M32L, M50D, N52S, M88Q (antibody, human IgG1, V domains shown, Human IgG1) VH: EVQLVESGGGLVQPGGSLRLSCAASGFTFSPFAMEWVRQAPGKGLEWVAKISPGGSWTYYSDTVTDRFTFSLDTSKSTAYLQMNSLRAEDTAVYYCARQLWGYYALDIWGQGTLVTVSS VL: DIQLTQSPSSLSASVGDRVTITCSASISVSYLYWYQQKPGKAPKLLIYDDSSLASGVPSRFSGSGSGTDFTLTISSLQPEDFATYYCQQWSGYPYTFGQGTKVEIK"
label_class = "satisfied"


Please look at the following binder next.
**Q:** Is reported kon greater than or equal to 800000 M⁻¹ s⁻¹ here: anti-IL-6 antibody, heavy chain S35P, G66D / light chain M32L, M50D, N52S, M88Q (antibody, human IgG1, V domains shown, Human IgG1) VH: EVQLVESGGGLVQPGGSLRLSCAASGFTFSPFAMPWVRQAPGKGLEWVAKISPGGSWTYYSDTVTDRFTFSLDTSKSTAYLQMNSLRAEDTAVYYCARQLWGYYALDIWGQGTLVTVSS VL: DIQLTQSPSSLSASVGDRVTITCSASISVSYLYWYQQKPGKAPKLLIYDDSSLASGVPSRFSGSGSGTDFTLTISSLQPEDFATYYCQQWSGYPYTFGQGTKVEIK
**A:** not satisfied
